Test: Interaction percent with DPPH after 60 minutes was determined at 0.2 mM concentration
Format: functional
Quick rule for you: RA under 8% gets 1, anything else gets 0.

Recorded results for 5 compounds are shown here.
>>> label("Cc1ccc2ccc(=O)oc2c1")
1
>>> label("CN/N=C/c1ccc2ccc(=O)oc2c1")
0
>>> label("O=c1ccc2ccc(/C=N/Nc3ccccc3)cc2o1")
0
>>> label("O=c1ccc2ccc(/C=N/O)cc2o1")
1
>>> label("O=Cc1ccc2ccc(=O)oc2c1")
1

Lab note: next compound to report on.
State whether 8% exceeds RA recorded for CC(O)Cc1ccc2ccc(=O)oc2c1 (centres undefined) .
0

---

Target: Beta-glucuronidase (Bos taurus) (UniProt A3KMY8)
Sequence (A3KMY8 as listed by the source): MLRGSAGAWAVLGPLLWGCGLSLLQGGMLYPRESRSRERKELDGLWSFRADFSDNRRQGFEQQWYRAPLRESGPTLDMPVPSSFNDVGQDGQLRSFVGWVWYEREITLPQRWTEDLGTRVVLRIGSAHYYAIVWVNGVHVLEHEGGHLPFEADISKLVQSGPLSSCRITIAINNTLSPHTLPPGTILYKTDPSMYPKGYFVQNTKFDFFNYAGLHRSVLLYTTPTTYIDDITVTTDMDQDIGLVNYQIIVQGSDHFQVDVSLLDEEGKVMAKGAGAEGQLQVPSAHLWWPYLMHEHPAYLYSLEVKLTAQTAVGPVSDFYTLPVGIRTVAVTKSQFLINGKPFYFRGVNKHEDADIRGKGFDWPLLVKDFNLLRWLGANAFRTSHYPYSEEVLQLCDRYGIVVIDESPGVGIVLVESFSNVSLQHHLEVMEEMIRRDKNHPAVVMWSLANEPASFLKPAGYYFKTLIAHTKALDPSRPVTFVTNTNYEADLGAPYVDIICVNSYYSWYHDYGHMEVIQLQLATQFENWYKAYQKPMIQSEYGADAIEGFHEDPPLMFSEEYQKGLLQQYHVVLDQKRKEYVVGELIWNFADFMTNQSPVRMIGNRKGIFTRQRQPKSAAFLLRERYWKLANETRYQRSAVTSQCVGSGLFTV
Assay: Compound was evaluated for in vitro inhibition of beta-glucuronidase at 0.1 mM concentration
Assay type: functional
We use 6% as the dividing line for inhibition: on or above the line is met, below is not met.

>>> label("CN/N=C/c1ccc2ccc(=O)oc2c1")
"met"
>>> label("O=c1ccc2ccc(/C=N/c3ccccc3)cc2o1")
"met"
>>> label("O=c1ccc2ccc(/C=N/N=C/c3ccc4ccc(=O)oc4c3)cc2o1")
"not met"
>>> label("CO/N=C/c1ccc2ccc(=O)oc2c1")
"met"

Lab note: next molecule to report on.
Determine whether this molecule has inhibition no lower than 6%: CC(O)Cc1ccc2ccc(=O)oc2c1 (stereo unspecified)
met

Hey, just so you know, these numbers are from ChEMBL document CHEMBL1147420.
